Below, each entry is listed with its recorded pIC50.
Target: T1, human OT7T175 (metastin receptor) (human, UniProt Q969F8 1-398)
T1 construct: expressed on CHO cells (hOT7T175-expressed CHO cells; hOT7T175/CHO); also called hOT7T175; h0T7T175
T1 sequence (Q969F8 whole entry L364H): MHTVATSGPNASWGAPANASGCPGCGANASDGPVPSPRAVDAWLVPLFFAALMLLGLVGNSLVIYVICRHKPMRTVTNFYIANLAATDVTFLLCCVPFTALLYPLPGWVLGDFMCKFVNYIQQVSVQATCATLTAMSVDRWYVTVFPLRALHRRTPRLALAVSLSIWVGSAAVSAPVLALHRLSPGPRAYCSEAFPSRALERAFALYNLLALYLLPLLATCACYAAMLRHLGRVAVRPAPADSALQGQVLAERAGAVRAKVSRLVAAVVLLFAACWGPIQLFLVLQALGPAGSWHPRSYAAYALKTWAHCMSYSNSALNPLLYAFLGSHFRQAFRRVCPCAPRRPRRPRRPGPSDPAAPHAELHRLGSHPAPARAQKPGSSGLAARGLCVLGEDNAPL
Assay: FMAT competition with Cy-5-labeled metastin (40-54), hOT7T175-expressed CHO cells
Square brackets hold non-standard residues; d marks the D form. Primed or numbered codes have the meaning given here. Ends that are not written are not given here. * marks the point of attachment. Arg(Me) = CNC(=N)NCCC[C@H](N)C(=O)O; Fmoc = O=C(OCC1c2ccccc2-c2ccccc21)*; Cha = N[C@@H](CC1CCCCC1)C(=O)O; Arg(Et)′ = not defined here; azaGly = NNC(=O)O
API: returns pIC50 as number; meaning -log10 of concentration in mol/L.

The cases that follow already have their pIC50 on record.
[dY]N[Cha]NSFGL[Arg(Me)]F-NH2 (N-terminus assumed; SMILES CNC(=N)NCCC[C@H](NC(=O)[C@H](CC(C)C)NC(=O)CNC(=O)[C@H](Cc1ccccc1)NC(=O)[C@H](CO)NC(=O)[C@H](CC(N)=O)NC(=O)[C@H](CC1CCCCC1)NC(=O)[C@H](CC(N)=O)NC(=O)[C@H](N)Cc1ccc(O)cc1)C(=O)N[C@@H](Cc1ccccc1)C(N)=O) [Compound No. 171: [D-Tyr1,Cha3,Arg(Me)9]MS10] : 6.96
[dY][dN]WNSF[azaGly]LR(Me)F-NH2 [Compound No. 237: [D-Tyr1,D-Asn2,AZaGly7,Arg(Me)9]MS10] : 7.57
[dY]NWASFGL[Arg(Me)]F-NH2 (N-terminus assumed; SMILES CNC(=N)NCCC[C@H](NC(=O)[C@H](CC(C)C)NC(=O)CNC(=O)[C@H](Cc1ccccc1)NC(=O)[C@H](CO)NC(=O)[C@H](C)NC(=O)[C@H](Cc1c[nH]c2ccccc12)NC(=O)[C@H](CC(N)=O)NC(=O)[C@H](N)Cc1ccc(O)cc1)C(=O)N[C@@H](Cc1ccccc1)C(N)=O) [Compound No. 210: [D-Tyr1,Ala4,Arg(Me)9]MS10] : 6.14

I'd like to know its pIC50. The binder in question is YNWNSFGLXF (Nar9; C-terminal amide) [Compound No. 310: [Nar9]MS10]
6.51

Further, for [dY]NWNSFGL[Arg(Et)′]F-NH2 [Compound No. 192: [D-Tyr1,Arg(Et)9]MS10] ?
6.28

And for YNWNSFGLXF (Nar(Me)9; C-terminal amide) [Compound No. 311: [Nar(Me)9]MS10] ?
6.33

Similarly, Fmoc-WNSFGL[Arg(Me)]F-NH2 (SMILES CNC(=N)NCCC[C@H](NC(=O)[C@H](CC(C)C)NC(=O)CNC(=O)[C@H](Cc1ccccc1)NC(=O)[C@H](CO)NC(=O)[C@H](CC(N)=O)NC(=O)[C@H](Cc1c[nH]c2ccccc12)NC(=O)OCC1c2ccccc2-c2ccccc21)C(=O)N[C@@H](Cc1ccccc1)C(N)=O) [Compound No. 145: des(1-2)-Fmoc-[Arg(Me)9]MS10] ?
6.92

Subsequent entry: YNWNSXGLRF (Nal(2)6; C-terminal amide) [Compound No. 152: [Nal(2)6]MS10]
6.74

And for YNSNSFGLRF-NH2 [Compound No. 69: [Ser3]MS10] ?
7.08
